assay: Drug concentration in brain tissues of rats, intravenous injection; format: in vivo, SD rats; conditions: SD, brain, iv; rat, i.v. 2 mg/kg, 0.5 hour; read-out: Brain drug concentration
Observed property: concentration at 0.5 h
Record the result as a number with its unit.

Record C[C@@H]1CN(C(=O)[C@@H]2CN(C3CCOCC3)C[C@H]2c2ccc(F)cc2F)C[C@H](C)N1c1ccc(F)cc1 (single isomer, unassigned) [Compound 7] , field concentration at 0.5 h: 2830 nM

###

Measured pEC50 by item
target: MC5R (Homo sapiens, UniProt P33032); construct: expressed in transfected cells; assay: In vitro activity of MCR receptors, intracellular cAMP signal (HEK293T/MCR cell line), MC5R; type: cell-based; settings: cAMP, HEK293T/MCR cell line; read-out: MC5R EC50
Sequence (P33032 whole entry): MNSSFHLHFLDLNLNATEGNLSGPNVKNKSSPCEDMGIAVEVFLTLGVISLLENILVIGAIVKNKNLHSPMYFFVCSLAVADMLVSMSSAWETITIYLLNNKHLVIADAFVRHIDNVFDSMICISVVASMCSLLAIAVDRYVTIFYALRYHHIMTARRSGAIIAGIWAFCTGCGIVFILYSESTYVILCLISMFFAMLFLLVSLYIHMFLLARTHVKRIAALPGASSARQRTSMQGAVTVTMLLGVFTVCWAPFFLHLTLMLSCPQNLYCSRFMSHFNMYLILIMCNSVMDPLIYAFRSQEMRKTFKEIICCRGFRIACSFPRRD
Structures can show the parent of a compound that is named as a salt.
Conceptually, pEC50 converts a concentration in mol/L into minus its log10.

Some solved entries appear below for comparison.
Molecule	Observed property	Observed measurement
CCC(C)(C)N1CC(C(=O)N2C[C@@H](C)N(c3ccc(F)cc3)[C@@H](C)C2)[C@H](c2ccc(F)cc2F)C1 (stereo partly drawn)	pEC50	5.71
C[C@@H]1CN(C(=O)[C@@H]2CN(C3CCCCC3)C[C@H]2c2ccc(F)cc2F)C[C@H](C)N1c1ccc(F)cc1	pEC50	5.86

Moving on to the next molecule.
Record C[C@@H]1CN(C(=O)[C@@H]2CN(C(C)(C)C)C[C@H]2c2ccc(F)cc2F)C[C@H](C)N1c1ccccc1 [Hydrochloride salt of compound 6] , field pEC50: 5.94

###

molecular target: MC4R (Homo sapiens); construct: expressed in transfected cells; experiment: In vitro activity of MCR receptors, intracellular cAMP signal (HEK293T/MCR cell line), MC4R; assay type: cell-based; conditions: cAMP, HEK293T/MCR cell line; read-out: MC4R EC50
Sequence (P32245 whole entry): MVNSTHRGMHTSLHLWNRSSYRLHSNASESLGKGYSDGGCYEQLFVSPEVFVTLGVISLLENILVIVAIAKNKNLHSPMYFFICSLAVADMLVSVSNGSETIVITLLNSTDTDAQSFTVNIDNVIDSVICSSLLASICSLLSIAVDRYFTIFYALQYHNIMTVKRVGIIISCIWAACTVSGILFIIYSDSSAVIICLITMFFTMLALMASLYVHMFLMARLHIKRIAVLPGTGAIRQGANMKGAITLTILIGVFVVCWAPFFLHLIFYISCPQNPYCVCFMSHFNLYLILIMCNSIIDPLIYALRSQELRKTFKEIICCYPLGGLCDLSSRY
Observed property: pEC50
Conceptually, pEC50 converts a concentration in mol/L into minus its log10.

Molecule	pEC50
C[C@@H]1CN(C(=O)[C@@H]2CN(C3CCC3)C[C@H]2c2ccc(F)cc2F)C[C@H](C)N1c1ccc(F)cc1 [Compound 17]	8.17
C[C@@H]1CN(C(=O)[C@@H]2CN(C3CCCCC3)C[C@H]2c2ccc(F)cc2F)C[C@H](C)N1c1ccc(F)cc1 [Compound 18]	8.40

Record C[C@@H]1CN(C(=O)C2CN([C@H]3CCO[C@@H](C)C3)C[C@H]2c2ccc(F)cc2F)C[C@H](C)N1c1ccc(F)cc1 (some centres unmarked) [Compound 22d] , field pEC50: 8.72

Record C[C@@H]1CN(C(=O)C2CN(C3CCOC(C)(C)C3)CC2c2ccc(F)cc2F)C[C@H](C)N1c1ccc(F)cc1 (single isomer, unassigned) [Compound 21b] , field pEC50: 8.28

###

assay: Pharmacokinetic parameters in rat plasma; format: in vivo, SD rats; conditions: SD, p.o. 5 mg/kg, oral bioavailability
Observed property: bioavailability (%)
Respond numerically; units are % and should not be typed.

Record C[C@@H]1CN(C(=O)[C@@H]2CN(C3CCOCC3)C[C@H]2c2ccc(F)cc2F)C[C@H](C)N1c1ccc(F)cc1 (single isomer, unassigned) , field bioavailability: 37

###

system: MDR1; test: In vitro MDCK-MDR1 permeability; format: in vitro ADME; conditions: dog, MDCK-MDR1, pH 7.4; MDR1-MDCKII monolayer, 2 μM, 150 minutes
Observed property: efflux ratio at 150 min, 2 μM

Noted efflux ratio at 150 min, 2 μM for C[C@@H]1CN(C(=O)[C@@H]2CN(C3CCOCC3)C[C@H]2c2ccc(F)cc2F)C[C@H](C)N1c1ccc(F)cc1 (single isomer, unassigned) [Compound 7] , tested on MDR1: 0.98
